Recorded Kochia plant response rating (0 to 100 scale) for the following compounds
# Test system: kochia (Kochia scoparia)
# TEST DETAILS: Test A preemergence, directed soil spray, visual injury rating
# Assay type: in vivo
# TEST CONTEXT: 125 g ai/ha, approx. 10 d, 0 = no effect, 100 = complete control
RECORDED METRIC: Kochia plant response rating (0 to 100 scale)

COMPOUND | STUDY SYSTEM | RESULT VALUE
O=C(Nc1cccc(F)c1F)C1c2nncn2CC1c1ccc(C(F)(F)F)cc1 (stereo not drawn) [Compound 12] | kochia (Kochia scoparia) | 30
Cc1ccc(C2Cn3cnnc3C2C(=O)Nc2cccc(F)c2C)cc1C (stereo not drawn) [Compound 26] | kochia (Kochia scoparia) | 20
CCCc1nnc2n1CC(c1ccc(C(F)(F)F)cc1)C2C(=O)Nc1cccc(F)c1F (stereo not drawn) [Compound 17] | kochia (Kochia scoparia) | 0
CCc1ccc(C2Cn3cnnc3C2C(=O)Nc2cccc(F)c2F)cc1 (stereo not drawn) [Compound 11] | kochia (Kochia scoparia) | 60
O=C(Nc1ccccc1F)C1c2nncn2CC1c1cccc(C(F)(F)F)c1 (stereo not drawn) [Compound 2] | kochia (Kochia scoparia) | 0
O=C(Nc1cccc(F)c1F)C1c2nncn2CC1c1ccc(Cl)cc1 (stereo not drawn) [Compound 7] | kochia (Kochia scoparia) | 0
O=C(Nc1cccc(F)c1F)C1c2nnc(C(F)(F)F)n2CC1c1ccc(C(F)(F)F)cc1 (stereo not drawn) [Compound 22] | kochia (Kochia scoparia) | 0
Cc1nnc2n1CC(c1ccc(Cl)cc1)C2C(=O)Nc1ccccc1F (stereo not drawn) [Compound 21] | kochia (Kochia scoparia) | 0
Cc1ccc(C2Cn3c(C)nnc3C2C(=O)Nc2cccc(F)c2C)cc1C (stereo not drawn) [Compound 10] | kochia (Kochia scoparia) | 0
CCc1nnc2n1CC(c1ccc(C(F)(F)F)cc1)C2C(=O)Nc1cccc(F)c1F (stereo not drawn) [Compound 8] | kochia (Kochia scoparia) | 0
CCc1ccc(C2Cn3cnnc3C2C(=O)Nc2cccc(F)c2C)cc1 (stereo not drawn) [Compound 28] | kochia (Kochia scoparia) | 60
CSc1ccccc1NC(=O)C1c2nnc(C)n2CC1c1ccc(C)c(C)c1 (stereo not drawn) [Compound 14] | kochia (Kochia scoparia) | 0
Cc1ccc(C2Cn3c(C)nnc3C2C(=O)Nc2ccccc2F)cc1 (stereo not drawn) [Compound 27] | kochia (Kochia scoparia) | 0
Cc1nnc2n1CC(c1ccc(Cl)cc1)C2C(=O)Nc1cccc(F)c1F (stereo not drawn) [Compound 5] | kochia (Kochia scoparia) | 0
CCc1ccc(C2Cn3c(C)nnc3C2C(=O)Nc2cccc(F)c2F)cc1 (stereo not drawn) [Compound 23] | kochia (Kochia scoparia) | 20
O=C(Nc1ccccc1F)C1c2nncn2CC1c1ccc(Cl)cc1 (stereo not drawn) [Compound 20] | kochia (Kochia scoparia) | 30
CCc1ccc(C2Cn3c(C)nnc3C2C(=O)Nc2cccc(F)c2C)cc1 (stereo not drawn) [Compound 9] | kochia (Kochia scoparia) | 0
CCc1ccc(C2Cn3cnnc3C2C(=O)Nc2ccccc2SC)cc1 (stereo not drawn) [Compound 25] | kochia (Kochia scoparia) | 0

###

Overview of recorded Plant response rating, Flood, Rice for various compounds
# Test system: rice (Oryza sativa)
# TEST DETAILS: Test B flooded paddy test, visual plant response rating
# Assay type: in vivo
# TEST CONTEXT: 250 g ai/ha; applied to paddy water at 2-leaf stage; rated after 13 to 15 days; scale 0 to 100, 0 is no effect, 100 is complete control
RECORDED METRIC: Plant response rating, Flood, Rice

COMPOUND | RECORDED METRIC | RESULT VALUE
CCc1ccc(C2Cn3cnnc3C2C(=O)Nc2cccc(F)c2F)cc1 (stereo not shown) | Plant response rating, Flood, Rice | 0
Cc1nnc2n1CC(c1ccc(C(F)(F)F)cc1)C2C(=O)Nc1ccccc1C(F)(F)F (stereo not shown) | Plant response rating, Flood, Rice | 0
Cc1nnc2n1CC(c1ccc(Cl)cc1)C2C(=O)Nc1cccc(F)c1F (stereo not shown) | Plant response rating, Flood, Rice | 0
Cc1ccc(C2Cn3cnnc3C2C(=O)Nc2ccccc2F)cc1 (stereo not shown) | Plant response rating, Flood, Rice | 20
O=C(Nc1cccc(F)c1F)C1c2nncn2CC1c1ccc(Cl)cc1 (stereo not shown) | Plant response rating, Flood, Rice | 15
CCc1ccc(C2Cn3cnnc3C2C(=O)Nc2ccccc2SC)cc1 (stereo not shown) | Plant response rating, Flood, Rice | 0
Cc1nnc2n1CC(c1ccc(Cl)cc1)C2C(=O)Nc1ccccc1F (stereo not shown) | Plant response rating, Flood, Rice | 0
